- System: human monocyte-derived macrophages (M0)
- Assay Notes: cell shape (eccentricity) Z-score vs DMSO control; higher = more elongated, M2-like morphology
- Run Conditions: 20 µM; 24 h; macrophage state: M0 (M-CSF)
Whole data set: some 3,800 compounds, median “cell shape (eccentricity) Z-score vs DMSO control” near 1.1, cut for the lowest 2% near -4.7. For the sample, the lowest values were picked, then their nearest neighbours and some compounds at random.
cell shape (Z-score) vs -1: at or above is yes, below is no.

compound=Cc1cc2cc3c(C)cc(=O)oc3c(C)c2o1 cat=no
compound=CCN1C(=CC=Cc2ccc3ccccc3[n+]2CC)C=Cc2ccccc21 cat=no
compound=CC1(C)CCC(CN2CCN(c3ccc(C(=O)NS(=O)(=O)c4ccc(NCC5CCOCC5)c([N+](=O)[O-])c4)c(Oc4cnc5[nH]ccc5c4)c3)CC2)=C(c2ccc(Cl)cc2)C1 cat=yes
compound=O=C(O)Cn1c(C(=O)Nc2nc(-c3ccccc3Cl)cs2)cc2ccccc21 cat=yes
compound="CO[C@@]12[C@@H]3NC3CN1C1=C(C(=O)C(N)=C(C)C1=O)[C@@H]2COC(N)=O (some centres not stated)" cat=no
compound=Cc1cc(=O)oc2c(O)c(O)ccc12 cat=yes
compound="C=C(COC(=O)C(C)C)C1Oc2cc(C(C)=O)ccc2C1OC(=O)C(C)C (configuration not stated)" cat=yes
compound="CCNC(=O)[C@@H]1CCCN1C(=O)[C@H](CCCNC(=N)N)NC(=O)[C@H](CC(C)C)NC(=O)[C@@H](COC(C)(C)C)NC(=O)[C@H](Cc1ccc(O)cc1)NC(=O)[C@H](CO)NC(=O)[C@H](Cc1c[nH]c2ccccc12)NC(=O)[C@H](Cc1cnc[nH]1)NC(=O)C1CCC(=O)N1 (some centres not stated)" cat=yes
compound=O=c1[nH]c2cc(Cl)ccc2c(O)c1-c1cccc(Oc2ccccc2)c1 cat=yes
compound=Cc1cc(O)c(C)c2c1Oc1c(C)c(O)cc(C)c1C(=O)O2 cat=no
compound=CNCC[C@@H](Oc1ccccc1C)c1ccccc1 cat=yes
compound="CCOC(=O)C1C(=O)C(=O)Nc2ccccc21 (configuration not stated)" cat=yes
compound="CC(CN(C)C)CN1c2ccccc2Sc2ccccc21 (configuration not stated)" cat=no
compound="C=C(NC(=O)C(=C)NC(=O)c1csc(C2=N[C@H]3c4csc(n4)[C@H]4NC(=O)c5csc(n5)[C@H]([C@@](C)(O)[C@@H](C)O)NC(=O)[C@H]5CSC(=N5)C(=CC)NC(=O)[C@H]([C@@H](C)O)NC(=O)c5csc(n5)[C@]3(CC2)NC(=O)[C@H](C)NC(=O)C(=C)NC(=O)[C@H](C)NC(=O)[C@H](C(C)CC)N[C@@H]2C=Cc3c([C@H](C)O)cc(nc3[C@H]2O)C(=O)O[C@@H]4C)n1)C(N)=O (some centres not stated)" cat=no
compound=O=C1c2cccc(O)c2C(=O)c2c(O)cccc21 cat=yes
compound="O=C(/C=C/c1ccccc1)CC(O)CCc1ccccc1 (configuration not stated)" cat=yes
compound=COc1cc2c(c(OC)c1OC)-c1cc3c(cc1C[C@H]1C(=O)OC[C@@H]1C2)OCO3 cat=yes
compound="C=C1CC[C@@H]2[C@](C)(CO)[C@H](O)CC[C@@]2(C)[C@@H]1CC(O)C1=CCOC1=O (some centres not stated)" cat=no
compound=COc1ccc2c(C)cc(=O)oc2c1 cat=yes
compound=COc1cc2c(c(OC)c1OC)CCc1cc(O)c(O)cc1-2 cat=yes
compound=O=C(O)CN1C(=O)c2cccc3cccc(c23)C1=O cat=no
compound=O=Cc1ccccc1O[C@@H]1O[C@H](CO)[C@H](O)[C@@H](O)[C@H]1O cat=yes
compound="COc1ccnc(CS(=O)c2nc3cc(OC(F)F)ccc3[nH]2)c1OC (configuration not stated)" cat=no
compound="COc1ccc(C2Oc3cc(OC)ccc3CC2O)cc1 (configuration not stated)" cat=yes
compound=C[C@H](NC(=O)/C(C#N)=C/c1ccc(O)c(O)c1)c1ccccc1 cat=no
compound=COc1cc2c(c(OC)c1OC)C[C@H]1COC(=O)[C@@H]1Cc1c-2cc(OC)c(OC)c1OC cat=no
compound="Cc1cc(O)c(C=O)c2c1C(=O)Oc1c(C)c(O)c3c(c1O2)C(O)OC3=O (configuration not stated)" cat=yes
compound=CCN(CC)CCOc1ccc2c(c1)C(=O)c1cc(OCCN(CC)CC)ccc1-2 cat=yes
compound=CC[N+](C)(CC)CC(=O)Nc1c(C)cccc1C cat=yes
compound="C=C1CC(O)C2C(=C)C(=O)OC2C2C(=C)C(OC3OC(CO)C(O)C(OC(=O)/C=C/c4ccc(O)c(O)c4)C3O)CC12 (configuration not stated)" cat=no
compound="CNCCC(Oc1ccccc1OC)c1ccccc1 (configuration not stated)" cat=yes
compound=Nc1ccc(-c2nc3ccc(-c4nc5ccc(N)cc5[nH]4)cc3[nH]2)cc1 cat=yes
compound="Cc1c(OCC(F)(F)F)ccnc1CS(=O)c1nc2ccccc2[nH]1 (configuration not stated)" cat=yes
compound="COc1cc(C)c2c(c1C=O)Oc1c(c(C)c(O)c3c1C(O)OC3=O)OC2=O (configuration not stated)" cat=no
compound="O=c1c(OC2OC(CO)C(O)C(O)C2OC2OC(CO)C(O)C(O)C2O)c(-c2ccc(O)cc2)oc2cc(O)cc(O)c12 (configuration not stated)" cat=yes
compound=O=C(O)CCCN1C(=O)c2cccc3cccc(c23)C1=O cat=yes
compound=O=C(/C=C/c1ccc(O)cc1)CC(=O)/C=C/c1ccc(O)cc1 cat=no
